Test: PET hydrolysis product formed (TPA+MHET+BHET, UV-Vis) per mg enzyme (mmol/mg enzyme); higher = more PET depolymerisation activity; extreme values may be limits of the assay
Conditions: PET substrate: aFilm; 70 °C; pH 5.5; 2 h
assay.endpoint: PET hydrolysis product formed
Lab note: write the figure by itself, no unit.

Field PET hydrolysis product formed (entry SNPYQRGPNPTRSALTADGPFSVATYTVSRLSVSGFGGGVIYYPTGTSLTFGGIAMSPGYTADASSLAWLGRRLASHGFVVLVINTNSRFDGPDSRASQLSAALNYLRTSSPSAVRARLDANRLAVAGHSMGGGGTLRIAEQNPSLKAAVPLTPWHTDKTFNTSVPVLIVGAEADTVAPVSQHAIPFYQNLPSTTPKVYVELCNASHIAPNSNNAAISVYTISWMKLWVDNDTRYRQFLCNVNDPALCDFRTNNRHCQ [LCC-ICCG] ) reads 0.0371

Field PET hydrolysis product formed (entry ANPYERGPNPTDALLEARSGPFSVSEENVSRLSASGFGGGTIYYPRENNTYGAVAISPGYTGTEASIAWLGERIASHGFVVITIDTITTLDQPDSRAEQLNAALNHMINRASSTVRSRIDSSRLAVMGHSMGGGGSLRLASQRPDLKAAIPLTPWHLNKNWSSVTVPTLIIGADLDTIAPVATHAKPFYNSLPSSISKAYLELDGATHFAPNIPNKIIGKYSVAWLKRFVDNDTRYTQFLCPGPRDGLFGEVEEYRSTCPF [TfCut2] ) reads 0

Field PET hydrolysis product formed (entry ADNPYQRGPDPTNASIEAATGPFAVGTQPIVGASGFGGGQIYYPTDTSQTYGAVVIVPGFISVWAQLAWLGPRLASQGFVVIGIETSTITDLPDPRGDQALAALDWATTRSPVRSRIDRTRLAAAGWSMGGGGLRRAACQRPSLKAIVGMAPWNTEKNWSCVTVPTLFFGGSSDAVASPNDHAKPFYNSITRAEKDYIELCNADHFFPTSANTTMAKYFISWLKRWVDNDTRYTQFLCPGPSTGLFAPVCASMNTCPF [CaPETaseM9] ) reads 0

* * *

Kindly supply the reported PET hydrolysis product formed values for the records listed here.
Test: PET hydrolysis product formed (TPA+MHET+BHET, UV-Vis) per mg enzyme (mmol/mg enzyme); higher = more PET depolymerisation activity; extreme values may be limits of the assay
Settings: PET substrate: aFilm; 70 °C; pH 8.5; 2 h
Lab note: write the figure by itself, no unit.

Field PET hydrolysis product formed (entry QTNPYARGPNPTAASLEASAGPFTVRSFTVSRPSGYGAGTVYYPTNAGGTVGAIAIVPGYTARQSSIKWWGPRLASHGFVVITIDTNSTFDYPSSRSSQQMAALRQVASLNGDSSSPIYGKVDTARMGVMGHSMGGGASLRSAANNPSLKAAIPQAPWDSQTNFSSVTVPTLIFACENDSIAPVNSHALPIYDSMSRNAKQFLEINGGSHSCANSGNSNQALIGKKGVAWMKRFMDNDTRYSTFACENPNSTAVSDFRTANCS [DuraPETase] ) reads 0

Field PET hydrolysis product formed (entry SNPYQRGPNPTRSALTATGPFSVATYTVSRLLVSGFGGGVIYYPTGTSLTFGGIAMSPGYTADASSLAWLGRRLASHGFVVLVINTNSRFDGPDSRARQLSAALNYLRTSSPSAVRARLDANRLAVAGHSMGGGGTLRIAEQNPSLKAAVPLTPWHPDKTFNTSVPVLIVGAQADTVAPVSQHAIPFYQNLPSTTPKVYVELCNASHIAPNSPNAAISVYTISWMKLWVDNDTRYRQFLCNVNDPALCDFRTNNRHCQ [LCC-ICCG I6M] ) reads 0.021

Field PET hydrolysis product formed (entry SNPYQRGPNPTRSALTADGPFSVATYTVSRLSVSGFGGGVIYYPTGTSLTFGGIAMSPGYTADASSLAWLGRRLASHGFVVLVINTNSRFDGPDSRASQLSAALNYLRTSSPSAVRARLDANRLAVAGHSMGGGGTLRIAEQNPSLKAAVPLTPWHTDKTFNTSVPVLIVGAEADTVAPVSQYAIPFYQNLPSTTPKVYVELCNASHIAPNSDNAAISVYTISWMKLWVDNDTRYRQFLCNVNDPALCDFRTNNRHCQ [LCC-A2] ) reads 0.09

* * *

Kindly supply the reported MHET released values for the records listed here.
Assay: MHET released, HPLC; higher = more MHET released; extreme values may be limits of the assay
Conditions: PET substrate: aFilm; 60 °C; pH 7.5; 24 h
A number alone suffices; assume mM.

Field MHET released (entry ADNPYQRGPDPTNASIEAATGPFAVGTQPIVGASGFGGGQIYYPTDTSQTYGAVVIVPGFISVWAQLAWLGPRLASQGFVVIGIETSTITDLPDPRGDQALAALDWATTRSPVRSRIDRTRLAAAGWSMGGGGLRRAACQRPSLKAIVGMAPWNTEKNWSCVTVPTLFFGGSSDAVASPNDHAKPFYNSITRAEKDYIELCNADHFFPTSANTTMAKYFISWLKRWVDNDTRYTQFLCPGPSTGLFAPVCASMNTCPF [CaPETaseM9] ) reads 0.299

Field MHET released (entry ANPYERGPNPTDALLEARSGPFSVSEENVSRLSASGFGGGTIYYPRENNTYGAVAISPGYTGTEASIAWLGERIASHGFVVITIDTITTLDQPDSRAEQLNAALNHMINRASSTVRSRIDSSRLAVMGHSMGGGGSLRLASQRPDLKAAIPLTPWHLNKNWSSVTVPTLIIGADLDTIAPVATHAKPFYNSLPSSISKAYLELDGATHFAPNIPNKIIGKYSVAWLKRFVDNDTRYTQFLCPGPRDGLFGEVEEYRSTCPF [TfCut2] ) reads 0.213

Field MHET released (entry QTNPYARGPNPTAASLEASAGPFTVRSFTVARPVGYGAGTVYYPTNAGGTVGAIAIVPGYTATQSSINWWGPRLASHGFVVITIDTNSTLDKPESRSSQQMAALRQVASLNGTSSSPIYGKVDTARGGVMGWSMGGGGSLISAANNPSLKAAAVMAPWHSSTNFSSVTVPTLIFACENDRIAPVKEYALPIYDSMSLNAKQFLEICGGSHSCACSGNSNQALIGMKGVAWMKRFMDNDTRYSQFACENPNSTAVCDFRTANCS [HotPETase] ) reads 3.07

* * *

Assay: PET hydrolysis product formed (TPA+MHET+BHET, UV-Vis) per mg enzyme (mmol/mg enzyme); higher = more PET depolymerisation activity; extreme values may be limits of the assay
Conditions: PET substrate: cryPow; 70 °C; pH 8.5; 2 h
PET hydrolysis product formed of 0.03 or higher: 1.0. Under 0.03: 0.0.

Asked: Has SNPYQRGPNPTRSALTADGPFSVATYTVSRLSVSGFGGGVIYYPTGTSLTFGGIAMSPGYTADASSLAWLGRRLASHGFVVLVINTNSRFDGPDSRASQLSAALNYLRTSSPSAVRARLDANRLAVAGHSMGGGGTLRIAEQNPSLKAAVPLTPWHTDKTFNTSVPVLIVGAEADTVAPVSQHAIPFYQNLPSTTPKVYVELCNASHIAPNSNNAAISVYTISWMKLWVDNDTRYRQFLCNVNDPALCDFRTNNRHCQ [LCC-ICCG] a recorded PET hydrolysis product formed greater than or equal to 0.03?
Given back: 0.0

Asked: Has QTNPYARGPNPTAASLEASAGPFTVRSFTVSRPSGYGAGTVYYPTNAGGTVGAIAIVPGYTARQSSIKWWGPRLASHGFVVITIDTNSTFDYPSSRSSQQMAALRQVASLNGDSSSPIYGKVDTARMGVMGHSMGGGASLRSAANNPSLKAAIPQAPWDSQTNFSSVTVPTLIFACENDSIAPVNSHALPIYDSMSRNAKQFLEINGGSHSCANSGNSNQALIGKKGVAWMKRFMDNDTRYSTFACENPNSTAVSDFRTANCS [DuraPETase] a recorded PET hydrolysis product formed greater than or equal to 0.03?
Given back: 0.0

Asked: Has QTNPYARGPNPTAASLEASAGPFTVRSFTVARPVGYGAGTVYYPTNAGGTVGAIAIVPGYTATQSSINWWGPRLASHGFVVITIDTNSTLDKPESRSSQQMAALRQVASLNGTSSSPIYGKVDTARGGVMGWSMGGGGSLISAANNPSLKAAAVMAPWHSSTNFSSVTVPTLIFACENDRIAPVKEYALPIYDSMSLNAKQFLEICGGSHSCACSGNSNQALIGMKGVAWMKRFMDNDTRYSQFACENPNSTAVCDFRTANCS [HotPETase] a recorded PET hydrolysis product formed greater than or equal to 0.03?
Given back: 1.0

Asked: Has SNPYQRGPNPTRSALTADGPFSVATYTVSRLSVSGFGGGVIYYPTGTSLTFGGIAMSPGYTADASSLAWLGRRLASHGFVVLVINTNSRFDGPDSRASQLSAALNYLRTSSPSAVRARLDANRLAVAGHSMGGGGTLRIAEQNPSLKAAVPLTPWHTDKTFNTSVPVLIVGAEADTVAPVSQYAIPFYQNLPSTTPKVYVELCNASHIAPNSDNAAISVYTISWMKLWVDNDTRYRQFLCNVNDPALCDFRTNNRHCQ [LCC-A2] a recorded PET hydrolysis product formed greater than or equal to 0.03?
Given back: 1.0

Asked: Has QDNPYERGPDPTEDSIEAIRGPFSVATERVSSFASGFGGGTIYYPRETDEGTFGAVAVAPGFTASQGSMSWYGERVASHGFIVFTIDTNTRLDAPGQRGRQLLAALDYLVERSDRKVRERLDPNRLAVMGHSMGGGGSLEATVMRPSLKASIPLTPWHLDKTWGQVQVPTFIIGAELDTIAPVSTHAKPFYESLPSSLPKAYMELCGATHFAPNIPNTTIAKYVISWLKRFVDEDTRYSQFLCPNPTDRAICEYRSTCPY [Cut190*SS] a recorded PET hydrolysis product formed greater than or equal to 0.03?
Given back: 0.0

Asked: Has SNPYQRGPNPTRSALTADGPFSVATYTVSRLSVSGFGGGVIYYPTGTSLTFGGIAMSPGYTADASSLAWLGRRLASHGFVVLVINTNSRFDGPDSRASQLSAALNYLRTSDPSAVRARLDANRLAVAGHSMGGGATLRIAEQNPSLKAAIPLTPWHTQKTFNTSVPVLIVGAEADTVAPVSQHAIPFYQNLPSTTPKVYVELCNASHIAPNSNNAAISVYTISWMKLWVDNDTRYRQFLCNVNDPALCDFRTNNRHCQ [LCC-ICCG DAQI] a recorded PET hydrolysis product formed greater than or equal to 0.03?
Given back: 1.0
